Measured values drawn from ChEMBL document CHEMBL1201862 for this set.

- Tested on: OVCAR-8
- Experiment Description: NCI tumour cell line growth inhibition, 48 h
Activity calls are given as the source filed them. Rule as the data show it: active = GI50 up to about 1.1 µM and inactive = higher.
Field: GI50. Provide a value for each of the compounds that follow.

-- ask Provide measured GI50 value, entry: CSC1NNC2(C(=O)N1)c1ccccc1-c1ccccc12 (stereo not drawn)
-- reply > 10 µM (inactive)

-- ask Dear colleague, please send me the reported GI50 for Cc1cc(NC(=S)Nc2ccccc2)c(NC(=S)Nc2ccccc2)cc1C when you can.
-- reply 40.1 µM (inactive)

-- ask Give the measured GI50 for CCN(C(=O)N[C@@H](Cc1ccccc1)C(=O)N[C@@H](CC(C)C)C(=O)NC)c1ccccc1
-- reply > 100 µM (inactive)

-- ask Note down GI50 recorded for CN1CCC(=O)/C(=C/c2ccccc2)C1
-- reply 22 µM (inactive)

-- ask Assign GI50 to the following record: O=C1CCC(=O)C1=NNc1ccccc1
-- reply > 100 µM (inactive)

-- ask Look up and state reported GI50 for O=C1Cc2ccccc2CCc2ccsc21
-- reply > 100 µM (inactive)

-- ask Identify GI50 associated with the compound C=C(C)C1=CCC[C@]2(C1)N=C(OC)[C@@H](C(C)C)N=C2OC
-- reply > 100 µM (inactive)

-- ask Determine its reported GI50: CCOC(=O)N1N=C(/C(C)=N/OC)C(C)[S+]1[O-] (stereo not drawn)
-- reply > 100 µM (inactive)

-- ask Give GI50 for CC1(C=O)C(=O)CCC2(C)C3CC(=O)OC3CCC12 (stereo not drawn)
-- reply > 100 µM (inactive)

-- ask Give reported GI50 value for Cc1c(/C=N/NC(=O)c2ccc(Cl)cc2)c(=O)n(-c2ccccc2)n1C
-- reply > 100 µM (inactive)

-- ask Provide only the value of recorded GI50 for O=C(/C=C/c1ccc(O)c(O)c1)c1ccc(O)cc1O
-- reply 17.9 µM (inactive)

-- ask Indicate the recorded GI50 value for this compound: Cc1cc(C(=C2C=CC(=[N+](C)C)C=C2)c2ccc([N+](C)(C)C)cc2)ccc1N(C)C
-- reply 5.08 µM (inactive)

-- ask Input CC1=C(C(=O)Nc2ccccc2C)C(c2ccc([N+](=O)[O-])cc2)C(C(=O)Nc2ccccc2C)=C(C)N1 , output reported GI50.
-- reply > 100 µM (inactive)

-- ask # return recorded GI50 for entry COc1cc(C2SC(C)C(=O)N2c2ccc(-c3csc(NS(=O)(=O)c4ccc(Cl)c(OC)c4)n3)cc2)ccc1O (stereo not drawn)
-- reply 29.7 µM (inactive)

-- ask Using known records, supply GI50 for c1ccc(CCN2CCCCCC2)nc1
-- reply > 100 µM (inactive)

-- ask Look up GI50 of O=C1c2ccccc2C(=O)c2sc(Nc3ccc(Cl)c(Cl)c3)nc21 and report it.
-- reply 3.7 µM (inactive)

-- ask Give the reported value of GI50 for this record: N=C(N)SCc1ccc(N=C=S)cc1
-- reply 15.2 µM (inactive)

-- ask Specify GI50 for CC(CN(C)C)/C(=N\Nc1ccccc1)c1ccccc1 (stereo not drawn) and stop.
-- reply 12.7 µM (inactive)

-- ask Using known records, supply GI50 for CCOc1ncn(-c2ccc(NC(=S)Nc3ncccn3)cc2)n1
-- reply 24.8 µM (inactive)

-- ask Report measured GI50; entry is C=C1C(=O)O[C@H]2[C@H]([C@H](C)CCCC(C)=O)O[C@H]([C@@]3(C)CCC(=O)O3)C[C@@H]12
-- reply 63.4 µM (inactive)

-- ask Give GI50 for the following compound: N#CCN1CCN(CC#N)CCN(CC#N)CCN(CC#N)CC1
-- reply > 100 µM (inactive)

-- ask Dear colleague, please send me the reported GI50 for c1ccc(CN2CCN3CCN(CC2)CCN(Cc2ccccc2)CC3)cc1 when you can.
-- reply 9.73 µM (inactive)

-- ask Input CC(=O)O[C@H]1C#C/C=C\C#CC[C@@H]2C(=O)N[C@@H]12 , output reported GI50.
-- reply 19.8 µM (inactive)

-- ask Fill in GI50 for record O=C1OC(c2ccc([N+](=O)[O-])cc2)=N/C1=C\c1ccc(O)cc1
-- reply > 100 µM (inactive)

-- ask Recall and state the measured GI50 for O=C(NN1C(=O)c2ccccc2C1=O)c1ccccc1Nc1ccccc1C(=O)NN1C(=O)c2ccccc2C1=O .
-- reply > 100 µM (inactive)

-- ask Identify measured GI50 corresponding to C=CCSC1=N/C(=C\c2ccc(Cl)cc2)C(=O)N1CC=C
-- reply 47.2 µM (inactive)

-- ask Please supply the value of reported GI50 for the item CCc1cccc(C)c1NC(=O)NS(=O)(=O)c1ccc(C)cc1
-- reply > 100 µM (inactive)

-- ask Report measured GI50; entry is CC(NC(=O)OC(C)(C)C)C(=O)NC1CCCC1 (stereo not drawn)
-- reply > 100 µM (inactive)

----------
- System: SW-620
- Experiment Description: NCI tumour cell line growth inhibition, 48 h
Activity calls are given as the source filed them. Cut-off read from the data, not from the text of the source: active = GI50 up to about 1.1 µM and inactive = higher.
Field 'call' accepts true (1) for active, false (0) for inactive

-- ask Returns: the outcome recorded for CC1=C2C(c3ccccc3)(c3ccccc3)C3C=CC2(C=N3)N(C(=O)NC2CCCCC2)C1=O (centres undefined) in this assay.
-- reply false (0)

-- ask Field: outcome | Entry: C=C1CC23CCC4C(C)(C(=O)O)CCCC4(C)C2CCC1C3 (centres undefined)
-- reply false (0)

-- ask What call does the record list for CC1=N/C(=C\c2ccc(N)cc2)C(=O)N1Nc1nnc(NN2C(=O)/C(=C/c3ccc(N)cc3)N=C2C)c2ccccc12 ?
-- reply false (0)

-- ask Write down the call the test reported for this molecule. Item: COc1cc2cc(C(=O)N3CC(COS(C)(=O)=O)c4c3cc([N+](=O)[O-])c3ccccc43)[nH]c2c(OC)c1OC (centres undefined)
-- reply false (0)

-- ask What was the test verdict on CC(C)C1OC(=O)C(Cc2ccccc2)N(C)C(=O)C(C(C)C)OC(=O)C(Cc2ccccc2)N(C)C(=O)C(C(C)C)OC(=O)C(Cc2ccccc2)N(C)C1=O (centres undefined) ?
-- reply true (1)

-- ask Hello, I am checking results. What call was entered for O=c1oc2ccccc2c(Nc2ccc3c(c2)Oc2ccccc2O3)c1[N+](=O)[O-] ?
-- reply false (0)

-- ask Could you check what this test reported for COc1ccc2c(c1)-c1c(c3ccccc3n1CCN1CCOCC1)CC2 ?
-- reply false (0)

-- ask How did this test come out for Cc1ccc(NC(=O)C2C3C=CC(O3)C2C(=O)O)cc1 (centres undefined) ?
-- reply false (0)

-- ask Any idea what this test logged for CCNC1=Nc2ccc(Cl)cc2C(c2ccccc2)=NN1 ?
-- reply false (0)

-- ask State the result this test recorded for C=C1C(=O)OC2C[C@@]3(C)CCCC(=C)C3CC12 (some centres undefined) .
-- reply false (0)

-- ask Check the results log: what was the call for N#CCCC[Si]12OCCN(CCO1)CCO2 ?
-- reply false (0)

-- ask Write down the call the test reported for this molecule. Item: COc1ccc(C(N)=O)cc1/N=N/N(C)C
-- reply false (0)

-- ask Please indicate how the test categorized COC1CC(N)C(O)C(C)O1 (centres undefined) .
-- reply false (0)

-- ask Lab log entry: O=C(O)c1ccc(C2COc3ccc(Cl)cc3C2)cc1 (centres undefined) — outcome as called in the assay?
-- reply false (0)

-- ask Test call for this molecule, please: COc1cc2c(cc1OC)C(C(=O)O)C(c1ccccc1)N(C)C2=O (centres undefined)
-- reply false (0)

-- ask Recorded test call requested for Clc1ccccc1CN1COc2c(ccc3cccnc23)C1
-- reply false (0)

-- ask Per the records of this test, what outcome belongs to CCN(CC)CCOC(=O)/C(=C/c1ccc(OC)cc1)c1cc(OC)c(OC)c(OC)c1 ?
-- reply false (0)

-- ask I'd appreciate the recorded outcome for CC1=Nc2c(N)nc(N)nc2N(C)C1 from this test.
-- reply false (0)

-- ask Hey, what did the test say about COC(=O)C1C(=O)CC2CCCCC21 (centres undefined) ?
-- reply false (0)

----------
- Tested on: EKVX
- Experiment Description: NCI tumour cell line growth inhibition, 48 h
Active and inactive are the calls of the source. No stated cut-off is given here; in the data, active = GI50 up to about 1.1 µM and inactive = higher.
Assign GI50 to each entry below.

-- ask Report GI50 under test system EKVX for Cc1cccc(C(C)(C)C)c1NC(=O)C(=O)C(c1cnc2ccccc2n1)[N+](=O)[O-] (stereo unspecified) .
-- reply > 100 µM (inactive)

-- ask Quote EKVX GI50 for entry CN(C)c1n/c(=N/c2ncn[nH]2)ss1 .
-- reply > 100 µM (inactive)

-- ask Recall the reported GI50 of O=C1NC(=O)[C@H]2C3C=CC([C@@H]12)[C@@H]1C(=O)NC(=O)[C@H]31 on EKVX and write it down.
-- reply > 100 µM (inactive)

-- ask Retrieve GI50 on EKVX; query Cc1cc(Cl)ccc1NC(=O)CC1SC(N)=NC1=O (stereo unspecified)
-- reply > 100 µM (inactive)

-- ask Give measured GI50 for COc1cccc(CN(C(=O)/C=C\Sc2ccccc2)C(C)(C)C)c1 (EKVX).
-- reply 90.6 µM (inactive)

-- ask Given COc1cc(C2c3cc4c(cc3[C@@H](Nc3ccc(N)cc3)C3COC(=O)[C@H]23)OCO4)cc(OC)c1O (stereo partly specified) , report its GI50 on EKVX.
-- reply 3.64 µM (inactive)

-- ask Would you please give the reported GI50 of O=[N+]([O-])C(=C(Nc1ccccc1)Nc1ccccc1)C(Cl)=C(Cl)Cl with EKVX?
-- reply 15.7 µM (inactive)

-- ask Provide GI50, recorded with EKVX, of COc1ccc(S(=O)(=O)N/N=C\c2cc([N+](=O)[O-])cc(I)c2O)c(OC)c1OC
-- reply 29.9 µM (inactive)

-- ask Enter measured GI50, system EKVX, for the compound shown: CC(=O)Nc1ccc2c(c1)C(=O)c1cccc(F)c1-2
-- reply > 100 µM (inactive)

-- ask Tell me its GI50 on EKVX: COC(=O)c1ccccc1C1CN=NC12Cc1ccccc1C2=O (stereo unspecified)
-- reply 42.5 µM (inactive)

-- ask // fetch GI50; item: N#Cc1c(C#N)c(SSc2c(C#N)c(C#N)c(N)n2-c2cccc3ccccc23)n(-c2cccc3ccccc23)c1N ; system: EKVX
-- reply 5.51 µM (inactive)

-- ask Retrieve GI50 on EKVX; query CN(C)C(=S)Oc1ccc2ccc(=O)oc2c1
-- reply > 100 µM (inactive)

-- ask Send back EKVX GI50 of COc1cc2cc(OC(C)=O)c3cc4c(cc3c2c(OC)c1OC)OCO4 only.
-- reply > 100 µM (inactive)

-- ask Recall the reported GI50 of CCOC(=O)Cc1cc(OC)c(OC)cc1/C(Cl)=C(\C=O)c1ccc(OC)c(OC)c1 on EKVX and write it down.
-- reply 22.1 µM (inactive)

-- ask Fetch value of GI50 on EKVX for CCOc1ccc(N/C(Cl)=C(Cl)\C(=C(\Nc2ccc(OCC)cc2)n2nnc3ccccc32)[N+](=O)[O-])cc1 .
-- reply 12.2 µM (inactive)

-- ask Retrieve GI50 on EKVX; query CCCCCCCCCCCCCCCCCCOCC(O)COP(=O)(O)OCC1OC(n2ccc(N)nc2=O)C(O)C1O (stereo unspecified)
-- reply 61.8 µM (inactive)

-- ask State the measured GI50 (EKVX) of C/C(=N\NC(=O)Nc1ccccc1Cl)c1ccc(O)cc1
-- reply > 100 µM (inactive)

-- ask For EKVX, give GI50 of the listed compound: O=C1c2cccc3c(Cl)ccc(c23)C(=O)N1CCCN1CCN(CCCN2C(=O)c3cccc4c(Cl)ccc(c34)C2=O)CC1
-- reply > 100 µM (inactive)

-- ask Report its GI50 with EKVX as the test system: Cc1nc(Cl)c(C)c(Cl)n1
-- reply > 27 µM (inactive)

-- ask Provide measured GI50 on EKVX for C=C(C)CNC(=S)N(N)c1ccc2ccccc2c1 please.
-- reply 24.7 µM (inactive)

-- ask Determine reported GI50 for Cc1nc(O)nc(O)c1/C=C/C(=O)O ; test system: EKVX.
-- reply > 1000 µM (inactive)
